Molecular target: PvNMT[G386E] (Plasmodium vivax, UniProt A5K1A2, G386E)
Sequence (A5K1A2 27-410 G386E): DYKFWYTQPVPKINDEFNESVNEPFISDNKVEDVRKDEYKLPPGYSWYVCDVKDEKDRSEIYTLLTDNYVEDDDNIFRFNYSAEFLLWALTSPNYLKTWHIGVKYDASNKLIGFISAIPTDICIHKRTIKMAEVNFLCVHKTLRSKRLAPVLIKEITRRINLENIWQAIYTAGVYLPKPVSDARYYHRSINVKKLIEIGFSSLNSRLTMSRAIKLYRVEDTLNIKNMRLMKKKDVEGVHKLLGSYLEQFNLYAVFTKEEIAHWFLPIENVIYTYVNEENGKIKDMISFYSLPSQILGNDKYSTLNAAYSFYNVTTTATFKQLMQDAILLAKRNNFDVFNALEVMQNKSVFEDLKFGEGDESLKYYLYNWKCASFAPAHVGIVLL
Assay: biochemical
Assay type: biochemical, P. vivax
Conditions: PvNMT[G386E] IC50, Replicate 2
readout.type: pIC50
# reply with the number alone; pIC50 is -log10 of concentration in mol/L

If you can, please state the reported pIC50 value of Cc1nn(C)c(C)c1CCOc1cc(F)ccc1-c1ccc2c(c1)c(CN(C)C)nn2C .
8.15

----------
System: P. falciparum 3D7 PfNMT[G386E] clones
Test: microbe, parasite or virus in culture
Format: cell-based
Conditions: Plasmodium falciparum, 3D7, read-out: Growth assay PfNMT[G386E] Clone 1 EC50
Below, each of the compounds is paired with its reported EC50 value.
Respond numerically; units are nM and should not be typed.

| compound | endpoint.unit | EC50 |
| --- | --- | --- |
| Cc1nn(C)c(C)c1CCOc1cc(F)ccc1-c1ccc2c(c1)c(CN(C)C)nn2C [IMP-1002] | nM | 230 |

Now for a further compound.
If you can, please state the reported EC50 value of Cc1nn(C)c(C)c1NS(=O)(=O)c1c(Cl)cc(-c2ccnc(N3CCNCC3)c2)cc1Cl [DDD85646, reference compound] .
91

----------
Molecular target: PvNMT[G386E] (Plasmodium vivax, UniProt A5K1A2, G386E)
Assay: biochemical
Format: biochemical, P. vivax
Conditions: PvNMT[G386E] IC50, Replicate 1
readout.type: pIC50
# reply with the number alone; pIC50 is -log10 of concentration in mol/L

If you can, please state the reported pIC50 value of Cc1nn(C)c(C)c1CCOc1cc(F)ccc1-c1ccc2c(c1)c(CN(C)C)nn2C [IMP-1002] .
8.22

----------
Tested on: IMP-1002-resistant P. falciparum Dd2 parasites (uncloned population and clones, NMT G386E)
Experiment: microbe, parasite or virus in culture
Type: cell-based
Settings: Plasmodium falciparum, DD2, 72 h, read-out: EC50 Clone 02
readout.type: pEC50
# reply with the number alone; pEC50 is -log10 of concentration in mol/L

If you can, please state the reported pEC50 value of Cc1nn(C)c(C)c1CCOc1cc(F)ccc1-c1ccc2c(c1)c(CN(C)C)nn2C [IMP-1002] .
6.52

----------
System: P. falciparum 3D7 parasites (PfNMT[WT])
Experiment: microbe, parasite or virus in culture
Assay type: cell-based
Details: Plasmodium falciparum; 3D7 parasites; initial EC50 determination (Figures 2A, S2A); read-out: parasite growth EC50
readout.type: EC50 (nM)
Respond numerically; units are nM and should not be typed.

If you can, please state the reported EC50 value of Cc1nn(C)c(C)c1CCOc1cc(F)ccc1-c1ccc2c(c1)c(CN(C)C)nn2C [IMP-1002] .
34

----------
Tested on: P. falciparum Dd2 parental line
Assay: microbe, parasite or virus in culture
Format: cell-based
Conditions: Plasmodium falciparum, DD2, 72 h, EC50 after 72 h (n = 3)
readout.type: EC50
Enter the number, and then the unit.

Provide the documented EC50 with P. falciparum Dd2 parental line as the system for Cc1nn(C)c(C)c1CCOc1cc(F)ccc1-c1ccc2c(c1)c(CN(C)C)nn2C
20.4 nM

----------
Test system: P. falciparum 3D7 parasites (PfNMT[WT])
Assay: microbe, parasite or virus in culture
Assay type: cell-based
Details: Plasmodium falciparum, 3D7, read-out: Growth assay PfNMT[WT] EC50
readout.type: pEC50
# reply with the number alone; pEC50 is -log10 of concentration in mol/L

| compound | pEC50 |
| --- | --- |
| Cc1nn(C)c(C)c1CCOc1cc(F)ccc1-c1ccc2c(c1)c(CN(C)C)nn2C | 8.02 |

If you can, please state the reported pEC50 value of Cc1nn(C)c(C)c1NS(=O)(=O)c1c(Cl)cc(-c2ccnc(N3CCNCC3)c2)cc1Cl [DDD85646, reference compound] .
7.16
